Hey, just so you know, these numbers are from patent US20260184766A1.

Catalogue of binders with associated pEC50
target: T1, SARS CoV-2 spike trimer protein from the parental Wuhan-Hu-1 isolate (recombinant stabilized extracellular … (SARS-CoV-2 (Wuhan-Hu-1)))
T1 construct: also called Spike protein
protocol text: ELISA, spike coated, chimeric IgG1
For clarity, pEC50 is expressed as the negative log10 of concentration in mol/L.

Before answering, review these 2 worked examples.
RBD A2 chimeric bovine-human IgG1 (antibody, V domains shown) VH: QVQLRESGPSLVKPLQILSLTCTVSGFSLSSNGVVWVRQAPGKALEWLGDICSTGGTSFNPALKSRLSIAKDNSKSQVSLSVRSVTPEDTATYYCARSRGYDCYANVDALDYVDAWGQGLLVTVSS VL: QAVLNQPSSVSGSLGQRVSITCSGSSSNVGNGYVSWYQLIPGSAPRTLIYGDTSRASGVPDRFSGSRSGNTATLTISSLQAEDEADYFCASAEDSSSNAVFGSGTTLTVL; 10.62
R2D6 chimeric bovine-human IgG1 (antibody, V domains shown) VH: QVQLRESGPSLVKPSQTLSLTCTTSGFSLSSYAVGWVRQAPGKALEWVGDIDYVGNTDYNPALKSRLSITKDNSKSQVSLVVSSVTAEDAATYYCAKYSGAYAYAACNYYGWRCAWESYIDAWGQGLLVTVSS VL: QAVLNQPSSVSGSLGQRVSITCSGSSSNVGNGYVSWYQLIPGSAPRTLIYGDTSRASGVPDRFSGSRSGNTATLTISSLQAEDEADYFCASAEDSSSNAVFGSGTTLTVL; 9.39

Pending binder:
Req: Can you share its pEC50? I mean this binder: RBD C6 chimeric bovine-human IgG1 (antibody, V domains shown) VH: QVQLRESGPSLVKPSQTLSLTCTVSGFSLSSNGVVWVRQAPGRPLEWLGDICSNGGTSFNPALKSRLSIAKDNSESQVSLTVRSVTPEDTATYYCARSRGYDCYAYVYALDTVDAWGQGLLVTVSS VL: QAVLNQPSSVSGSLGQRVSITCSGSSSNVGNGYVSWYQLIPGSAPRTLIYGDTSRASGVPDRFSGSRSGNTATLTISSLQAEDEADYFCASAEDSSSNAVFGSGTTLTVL
Resp: 10.52
